Give cell viability for every item shown.
- Tested on: NOMO1
- Protocol description: cell viability relative to DMSO control; higher = less cytotoxic
- Measurement conditions: RPMI 5 mM glucose + 10% dialyzed FBS; 48 h; 0.000781 µM
Return type: number; implicit unit %.

Task: Report cell viability for CC[C@H](C)C(=O)O[C@H]1C[C@@H](C)\C=C2\C=C/[C@H](C)[C@H](CC[C@@H]3C[C@@H](O)CC(=O)O3)[C@@H]12 please.
Result: 80.3

Task: Report cell viability for O=C1\C=C(OC2=C(C=CC=C12)C3=CC=CC4=C3SC5=C4C=CC=C5)\N6CCOCC6 please.
Result: 113

Task: Report cell viability for CN(C)C(=O)[C@H](O)[C@H](Cc1ccccc1)NC(=O)c1cc2cc(Cl)ccc2[nH]1 please.
Result: 83.9
